Where do these numbers come from? They come from patent US11224591B2.

TEST_DETAILS: Caco-2 bidirectional assay (A-B and B-A) to study the effect of piperine (P-gp inhibitor) on the permeability
Assay type: in vitro ADME
REPORTED_CONDITIONS: human, Caco-2, pH 7.4
READOUT: Papp A→B at 120 min, 30 μM (×10⁻⁶ cm/s)

MOL_SMILES: CO[C@H]1/C=C/O[C@@]2(C)Oc3c(C)c(O)c4c(O)c(c5c(nc6cc(C)ccn65)c4c3C2=O)NC(=O)/C(C)=C\C=C\[C@H](C)[C@H](O)[C@@H](C)[C@@H](O)[C@@H](C)[C@H](OC(C)=O)[C@@H]1C
READOUT: Papp A→B at 120 min, 30 μM
EXPERIMENTAL_RESULT: 1.08
